# Assay Name: RP, Merck Supelco Ascentis Express C18, 100 × 2.1 mm, 2 µm, 40 °C, 0.2 mL/min, estimated dead time 1.1 min; A: water + 0.1% formic acid, pH 3; B: acetonitrile + 0.1% formic acid, pH 3; gradient (min/%B) 0/5 2/5 17/99.9 20/99.9
# Condition Description: stereoisomer not certain
Threshold 7 min. LC retention time below it: Satisfied. LC retention time at it or above: Not satisfied.

Please review the entries below; each comes with its answer.
CC(=O)Oc1ccccc1 [PHENYL ACETATE]
Satisfied
CCCCC(N)C(=O)O (configuration not stated) [NORLEUCINE]
Satisfied
N[C@@H](Cc1cc(I)c(O)c(I)c1)C(=O)O [3,5-DIIODO-L-TYROSINE]
Satisfied

Threshold test, LC retention time < 7 min: NC(Cc1cc(I)c(Oc2cc(I)c(O)c(I)c2)c(I)c1)C(=O)O (configuration not stated) [THYROXINE]
Not satisfied

Threshold test, LC retention time < 7 min: CC(=O)NC(CCC(=O)O)C(=O)O (configuration not stated) [N-ACETYLGLUTAMATE]
Satisfied

Threshold test, LC retention time < 7 min: CC(C)=CCCC(C)=CCCC(C)=CCCC=C(C)CCC=C(C)CCC=C(C)C [SQUALENE]
Not satisfied

Threshold test, LC retention time < 7 min: CC(C)CC(N)C(=O)O (configuration not stated) [LEUCINE]
Satisfied

Threshold test, LC retention time < 7 min: CC(C)=CCCC(C)C1CCC2C3CC=C4CC(O)CCC4(C)C3CCC12C (configuration not stated) [DESMOSTEROL]
Not satisfied

Origin of values: the RepoRT retention time repository (doi:10.1007/s00216-021-03828-0)
